Exercise: state measured IC50 for each of the molecules provided.
Tested on: Herpes simplex type 1 virus, strain SC16
Experiment: Virus cytopathic effect (CPE) reduction, Herpes simplex type 1 virus strain SC16 in MRC-5 cells (Method 2)
Format: cell-based
Conditions: Human alphaherpesvirus 1, SC16, MRC5, 72 h, 50% reduction of virus CPE, 3 days at 37° C., read-out: PDD50 Herpes simplex type 1 virus SC16 strain in MRC-5 cells
// return numeric value only (unit: µg/mL, not printed)

Q) Specify IC50 for Nc1nc2c(ncn2CCC(CO)COC(=O)c2ccccc2)c(=O)[nH]1 (centres unmarked) and stop.
A) 3

Q) Specify IC50 for "Nc1nc2c(ncn2CCC(CO)CO)c(=O)[nH]1" and stop.
A) 0.9

Q) Specify IC50 for CC(=O)OCC(CO)CCn1cnc2c(=O)[nH]c(N)nc21 (centres unmarked) and stop.
A) 10

Q) Specify IC50 for "Nc1nc2c(ncn2CCC(COC(=O)n2ccnc2)COC(=O)n2ccnc2)c(=O)[nH]1" and stop.
A) 1.5

Q) Specify IC50 for "CCC(=O)OCC(CCn1cnc2c(=O)[nH]c(N)nc21)COC(=O)CC" and stop.
A) 25

Q) Specify IC50 for "CCCCCC(=O)OCC(CCn1cnc2c(=O)[nH]c(N)nc21)COC(=O)CCCCC" and stop.
A) 1

Q) Specify IC50 for CCCCCCCCCCCCCCCC(=O)OCC(CO)CCn1cnc2c(=O)[nH]c(N)nc21 (centres unmarked) and stop.
A) 2

Q) Specify IC50 for "Nc1nc2c(ncn2CCC(CO)CO)c(=O)[nH]1.[Na]" and stop.
A) 0.7

---

Exercise: state measured IC50 for each of the compounds provided.
System: Herpes simplex type 1 virus (HFEM strain)
Experiment: Plaque reduction, Herpes simplex type 1 virus (HFEM strain) in Vero cells (Method 1)
Assay type: cell-based
Details: Human alphaherpesvirus 1, Vero, 96 h, 50% reduction in number of virus plaques, 4 days at 37° C., read-out: PDD50 Herpes simplex type 1 virus HFEM strain in Vero cells
// return numeric value only (unit: µg/mL, not printed)

Q) Specify IC50 for CCCCCCCCCCCCCCCC(=O)OCC(CO)CCn1cnc2c(=O)[nH]c(N)nc21 (centres unmarked) [Example 34] and stop.
A) 16

Q) Specify IC50 for CCCCCC(=O)OCC(CCn1cnc2c(=O)[nH]c(N)nc21)COC(=O)CCCCC [Example 25] and stop.
A) 1.9

Q) Specify IC50 for Nc1nc2c(ncn2CCC(CO)CO)c(=O)[nH]1.[Na] [Example 12] and stop.
A) 2.2

Q) Specify IC50 for Nc1nc2c(ncn2CCC(CO)CO)c(=O)[nH]1 [Example 4] and stop.
A) 1.3

Q) Specify IC50 for Nc1nc2c(ncn2CCC(CO)COC(=O)c2ccccc2)c(=O)[nH]1 (centres unmarked) [Example 32] and stop.
A) 95

Q) Specify IC50 for CC(=O)OCC(CO)CCn1cnc2c(=O)[nH]c(N)nc21 (centres unmarked) [Example 31] and stop.
A) 24

Q) Specify IC50 for Nc1nc2c(ncn2CCC(COC(=O)n2ccnc2)COC(=O)n2ccnc2)c(=O)[nH]1 [Example 27] and stop.
A) 13

---

Exercise: state measured melting point for each of the compounds provided.

Q) Specify melting point for "CCCCCC(=O)Nc1nc2c(ncn2CCC(CO)CO)c(=O)[nH]1" and stop.
A) 86 to 88 °C

Q) Specify melting point for Nc1nc2c(ncn2CCC(CO)COC(=O)c2ccccc2)c(=O)[nH]1 (centres unmarked) and stop.
A) 156 to 168 °C

Q) Specify melting point for "CC(C)Oc1nc(N)nc2c1ncn2CCC(CO)CO" and stop.
A) 111.5 to 113.5 °C

Q) Specify melting point for "CCOc1nc(N)nc2c1ncn2CCC(CO)CO" and stop.
A) 150 to 152 °C

Q) Specify melting point for "CC(=O)Nc1nc2c(ncn2CCC(CO)CO)c(=O)[nH]1" and stop.
A) 143 to 146 °C

Q) Specify melting point for CC(=O)OCC(CO)CCn1cnc2c(=O)[nH]c(N)nc21 (centres unmarked) and stop.
A) 194 to 200 °C

Q) Specify melting point for "COc1nc(N)nc2c1ncn2CCC(CO)CO" and stop.
A) 117 to 119 °C

Q) Specify melting point for "CC(=O)OCC(CCn1cnc2c(=O)[nH]c(N)nc21)COC(C)=O" and stop.
A) 202 to 205 °C

Q) Specify melting point for CCCCCC(=O)OCC(CO)CCn1cnc2c(=O)[nH]c(N)nc21 (centres unmarked) and stop.
A) 179 to 181 °C

Q) Specify melting point for "Nc1nc(Oc2ccccc2)c2ncn(CCC(CO)CO)c2n1" and stop.
A) 173 to 175 °C

Q) Specify melting point for "CC(C)(C)C(=O)OCC(CCn1cnc2c(=O)[nH]c(N)nc21)COC(=O)C(C)(C)C" and stop.
A) 225 to 237 °C
